# ASSAY: Metabolic profiling of 14C-3APS in mice
# Assay type: in vivo, male CD-1 mice
# MEASUREMENT_SETUP: male, CD-1, mouse, plasma, po, 100 mg/kg, Mouse plasma; analyte after single oral 100 mg/kg 14C-3APS
PROPERTY_MEASURED: Tmax (h)
Could you give me the number in h? Just the number is fine.

I would be grateful if you could share the reported Tmax for O=C(O)CCS(=O)(=O)O [2-carboxyethanesulfonic acid] .
2

---

# ASSAY: Mouse whole blood stability
# Assay type: in vitro ADME
# MEASUREMENT_SETUP: 37° C.
Counter-ions that a name gives are not always drawn.
PROPERTY_MEASURED: Blood stability (% of compound remaining after 240 min.) Mouse Blood

[[record]]
compound = "CC(C)(CC(=O)O)CC(=O)NCCCS(=O)(=O)O [Compound B3, Sodium Salt]"
recorded_value = "++ (++: 30-75%)"

[[record]]
compound = "CC(=O)OC(C)OC(=O)NCCCS(=O)(=O)O (centres unmarked) [Compound C19, Sodium Salt]"
recorded_value = "+ (+: <30%)"

[[record]]
compound = "CC(OC(=O)CC(C)(C)CC(=O)O)OC(=O)NCCCS(=O)(=O)O (centres unmarked)"
recorded_value = "+++ (+++: >75%)"

[[record]]
compound = "N[C@H](C(=O)NCCCS(=O)(=O)O)c1ccccc1"
recorded_value = "+ (+: <30%)"

[[record]]
compound = "C[C@@H](N)C(=O)NCCCS(=O)(=O)O"
recorded_value = "+++ (+++: >75%)"


I would be grateful if you could share the reported Blood stability (% of compound remaining after 240 min.) Mouse Blood for NCCCC[C@H](N)C(=O)NCCCS(=O)(=O)O .
+++ (+++: >75%)

I would be grateful if you could share the reported Blood stability (% of compound remaining after 240 min.) Mouse Blood for CC(C)C[C@H](N)C(=O)NCCCS(=O)(=O)O .
+ (+: <30%)

I would be grateful if you could share the reported Blood stability (% of compound remaining after 240 min.) Mouse Blood for CC(OC(=O)NCCCS(=O)(=O)O)OC(=O)C(C)(C)c1cccs1 (centres unmarked) .
+ (+: <30%)

I would be grateful if you could share the reported Blood stability (% of compound remaining after 240 min.) Mouse Blood for CC(OC(=O)CCC(=O)O)OC(=O)NCCCS(=O)(=O)O (centres unmarked) .
++ (++: 30-75%)

I would be grateful if you could share the reported Blood stability (% of compound remaining after 240 min.) Mouse Blood for N[C@@H](Cc1c[nH]c2ccccc12)C(=O)NCCCS(=O)(=O)O .
++ (++: 30-75%)

I would be grateful if you could share the reported Blood stability (% of compound remaining after 240 min.) Mouse Blood for CC(OC(=O)NCCCS(=O)(=O)O)OC(=O)c1ccccc1 (centres unmarked) [Compound C16, Sodium Salt] .
+ (+: <30%)

I would be grateful if you could share the reported Blood stability (% of compound remaining after 240 min.) Mouse Blood for CSCC[C@@H](N)C(=O)NCCCS(=O)(=O)O .
+++ (+++: >75%)

I would be grateful if you could share the reported Blood stability (% of compound remaining after 240 min.) Mouse Blood for CC(OC(=O)CCCC(=O)OCc1ccccc1)OC(=O)NCCCS(=O)(=O)O (centres unmarked) .
+ (+: <30%)

I would be grateful if you could share the reported Blood stability (% of compound remaining after 240 min.) Mouse Blood for N[C@@H](COCc1ccccc1)C(=O)NCCCS(=O)(=O)O .
+ (+: <30%)

I would be grateful if you could share the reported Blood stability (% of compound remaining after 240 min.) Mouse Blood for CC(OC(=O)NCCCS(=O)(=O)O)OC(=O)C(C)(C)c1ccccc1 (centres unmarked) .
++ (++: 30-75%)

I would be grateful if you could share the reported Blood stability (% of compound remaining after 240 min.) Mouse Blood for CC(C)(CCC(=O)NCCCS(=O)(=O)O)C(=O)O .
+++ (+++: >75%)

I would be grateful if you could share the reported Blood stability (% of compound remaining after 240 min.) Mouse Blood for CC(OC(=O)CCCCC(=O)OCc1ccccc1)OC(=O)NCCCS(=O)(=O)O (centres unmarked) .
+ (+: <30%)

I would be grateful if you could share the reported Blood stability (% of compound remaining after 240 min.) Mouse Blood for C[C@H](N)C(=O)NCCCS(=O)(=O)O .
++ (++: 30-75%)

I would be grateful if you could share the reported Blood stability (% of compound remaining after 240 min.) Mouse Blood for CCC(C)[C@H](N)C(=O)NCCCS(=O)(=O)O (some centres unmarked) .
+++ (+++: >75%)

I would be grateful if you could share the reported Blood stability (% of compound remaining after 240 min.) Mouse Blood for CC(=O)OC(OC(=O)NCCCS(=O)(=O)O)C(C)(C)C (centres unmarked) .
+ (+: <30%)

// data source = patent US11020360B2
